Target: Glucose-dependent insulinotropic receptor (Homo sapiens) (UniProt Q8TDV5)
Sequence (whole entry): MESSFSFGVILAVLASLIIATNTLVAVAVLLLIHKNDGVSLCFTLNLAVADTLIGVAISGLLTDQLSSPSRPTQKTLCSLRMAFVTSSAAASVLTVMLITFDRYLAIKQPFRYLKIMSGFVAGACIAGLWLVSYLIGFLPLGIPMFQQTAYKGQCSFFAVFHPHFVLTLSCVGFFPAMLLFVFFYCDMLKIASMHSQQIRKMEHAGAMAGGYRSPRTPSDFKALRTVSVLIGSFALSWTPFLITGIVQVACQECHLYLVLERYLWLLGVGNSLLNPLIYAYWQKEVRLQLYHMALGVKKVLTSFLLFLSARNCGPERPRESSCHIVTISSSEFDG
Assay: Agonist activity at CREB-LBD and GAL4-DBD fused human GPR119 expressed in HEK293 cells at 1 uM by luciferase reporter gene assay relative to AR231453
Assay type: functional, cell-based
Measured Endpoint: Activity (%)
One number for each entry, in %.

CC#CCn1c(N2CC(N)C2)nc2c1c(=O)n(CCCN1CCC(C(=O)OC(C)C)CC1)c(=O)n2C :: 36.5
CC#CCn1c(N2CCC[C@@H](N)C2)nc2c1c(=O)n(CCCN1CCC(C(=O)OCCC)CC1)c(=O)n2C :: 31.9

List Activity for every entry below, keeping the order given.
1. CC#CCn1c(N2CCC[C@@H](N)C2)nc2c1c(=O)n(CCC1CCN(C(=O)OC(C)C)CC1)c(=O)n2C
2. CC#CCn1c(N2CCC[C@@H](N)C2)nc2c1c(=O)n(CCCC1CCN(C(=O)OC(C)C)CC1)c(=O)n2C

Reply:
69.8
66.1

This collection of values is drawn from ChEMBL document CHEMBL3872227.
